What growth was measured for each of the following?
- Tested on: MALME-3M melanoma
- protocol-text: NCI-60 one-dose screen, 48 h (100 = growth as untreated, 0 = no growth, -100 = all killed)
- assay-conditions: 10 µM unless noted
The panel holds about 83,000 compounds, 20% with a hit somewhere; the sample as a whole holds those more often. Activity calls are given as the source filed them. The calls were made as follows: active = growth percent below 10; inactive = the rest.

Would you please look over these solved cases?
| molecule | growth |
| --- | --- |
| Clc1ccc2c(NCCCN3CCN(c4nc(N5CCOCC5)nc5ccccc45)CC3)ccnc2c1 | -82% (active) |
| Cc1ccc(NSc2ccccc2[N+](=O)[O-])cc1 | 44.9% (inactive) |
| CN(C)CN1CCN(c2ccc3nc(-c4ccc5nc(-c6ccc(C(F)(F)F)cc6)[nH]c5c4)[nH]c3c2)CC1 | -4.2% (active) |
| N#C/C(=C\c1ccc(Br)cc1)n1nnc2ccccc21 | 24.1% (inactive) |
| C=C(CNCCc1ccc(O)cc1)[C@@H]1CC[C@]2(COC3CCCCO3)CC[C@]3(C)[C@H](CC[C@@H]4[C@@]5(C)CCC(N)C(C)(C)[C@@H]5CC[C@]43C)[C@@H]12 (some centres not stated) | -83.9% (active) |

Batch lookup, growth per entry.
1. O=C1c2cccc3c(-c4ccc(-c5nc6c7ccccc7c7ccccc7c6[nH]5)cc4)ccc(c23)C(=O)N1CCN1CCNCC1
2. CCCCCOC(=O)c1ccc(NC(=O)CNCC(C)C)cc1

Response line:
["85.4% (inactive)", "107% (inactive)"]

Need growth for each of these molecules.
1. NC(N)=N/N=C/CO
2. COC(=O)/C(=C\c1ccc(OC)cc1)C(=O)N1c2ccccc2Sc2ccccc21
3. CC(C)c1ccc(C(=O)OC(=O)c2ccc(C(C)C)cc2)cc1
4. Fc1ccc(Nc2ccc3cc(OCCCN4CCOCC4)ccc3n2)cc1F
5. O=C(Oc1ccc([N+](=O)[O-])cc1)c1ccc(CBr)cc1
6. Cc1ccc(/C(=N\N=C(N)N)c2ccccc2)cc1
7. O=C(NCCN1CCC(O)CC1)c1cc2c(o1)C(=O)c1ccccc1C2=O

Response line:
["111% (inactive)", "32.9% (inactive)", "86.3% (inactive)", "42.6% (inactive)", "97.9% (inactive)", "61.8% (inactive)", "-99.2% (active)"]

Hi, could you look up growth for each item in my list?
1. Nc1ccc2c(S(=O)(=O)O)ccc(S(=O)(=O)O)c2c1
2. COc1ccc(/C=C2\COc3ccc(O)cc3C2=O)cc1OC
3. CN(C)c1ccc2cc(-c3ccccc3F)c(N)nc2c1

Response line:
1: 109% (inactive); 2: 92.6% (inactive); 3: -22.1% (active)
